Parameter ΔTm, tested on Nuclear receptor ROR-gamma (Homo sapiens), listed per item.
Sequence (P51449 whole entry, the tested form may be a part): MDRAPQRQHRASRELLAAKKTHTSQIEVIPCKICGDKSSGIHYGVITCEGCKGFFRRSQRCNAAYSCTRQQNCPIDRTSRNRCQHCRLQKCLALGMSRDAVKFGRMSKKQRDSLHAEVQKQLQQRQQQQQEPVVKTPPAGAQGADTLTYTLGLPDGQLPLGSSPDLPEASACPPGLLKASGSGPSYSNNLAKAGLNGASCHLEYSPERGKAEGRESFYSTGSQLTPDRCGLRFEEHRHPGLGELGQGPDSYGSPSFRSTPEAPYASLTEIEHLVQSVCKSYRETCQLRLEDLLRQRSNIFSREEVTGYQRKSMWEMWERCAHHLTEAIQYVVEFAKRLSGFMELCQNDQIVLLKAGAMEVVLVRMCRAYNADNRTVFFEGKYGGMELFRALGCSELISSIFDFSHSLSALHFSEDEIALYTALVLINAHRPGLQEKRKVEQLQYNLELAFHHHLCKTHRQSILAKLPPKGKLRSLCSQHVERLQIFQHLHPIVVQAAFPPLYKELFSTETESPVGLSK
quantity_measured: ΔTm (°C)

Below, each entry is followed by its recorded ΔTm result.
>  <query_smiles>
Cc1ccc(S(=O)(=O)N(CC(=O)Nc2ccc(F)cc2)c2cccc(C(F)(F)F)c2)cc1

>  <numeric_readout>
2.1

$$$$
>  <query_smiles>
COc1ccc(NC(=O)CN(c2cccc(C(F)(F)F)c2)S(=O)(=O)c2ccc(C)cc2)cc1OC

>  <numeric_readout>
1.3

$$$$

(P) Cc1ccc(S(=O)(=O)N(CC(=O)Nc2ccc(C#N)cc2)c2ccc(C#N)cc2)cc1
(Q) Cc1ccc(S(=O)(=O)N(CC(=O)Nc2ccc(C#N)cc2)c2ccc(C(F)(F)F)cc2)cc1
# min-compare on ΔTm between P and Q // respond with label for picked entry
P
(P: 1.71 °C, Q: 3.05 °C)

====

# target_system: Nuclear receptor ROR-gamma (Homo sapiens)
# method: Displacement of N-terminal biotinylated SRC1-4 coactivator peptide from N-terminal His6-fused human RORgamma-LBD (262 to 507 residues) expressed in Escherichia coli BL21 (DE3) by luminescence-based Alphascreen assay
# condition_set: read-out: IC50
quantity_measured: IC50 (µM)

>  <query_smiles>
CC(=O)c1ccc(NC(=O)CN(c2cccc(C(F)(F)F)c2)S(=O)(=O)c2ccc(C)cc2)cc1

>  <numeric_readout>
11.3

$$$$
>  <query_smiles>
COC(=O)c1ccc(CNC(=O)CN(c2cccc(C(F)(F)F)c2)S(=O)(=O)c2ccc(C)cc2)cc1

>  <numeric_readout>
67.1

$$$$
>  <query_smiles>
Cc1ccc(S(=O)(=O)N(CC(=O)Nc2ccc(C#N)cc2)c2ccc(C(F)(F)F)cc2)cc1

>  <numeric_readout>
1.07

$$$$

(a) Cc1ccc(S(=O)(=O)N(CC(=O)O)c2cccc(C(F)(F)F)c2)cc1
(b) Cc1ccc(S(=O)(=O)N(CC(=O)Nc2ccc(C#N)cc2)c2ccc(Cl)c(Cl)c2)cc1
(c) Cc1ccc(S(=O)(=O)N(CC(=O)NCc2ccncc2)c2cccc(C(F)(F)F)c2)cc1
(d) Cc1ccc(S(=O)(=O)N(CC(=O)Nc2ccc(C#N)cc2)c2cccc(C(F)(F)F)c2)cc1
Order each entry by recorded IC50, climbing from the minimum. Answer by listing the labels in the order asked for.
b, d, c, a

(I) Cc1ccc(S(=O)(=O)N(CC(=O)Nc2ccc(O)cc2)c2cccc(C(F)(F)F)c2)cc1
(II) Cc1ccc(S(=O)(=O)N(CC(=O)Nc2ccc(C(O)(C(F)(F)F)C(F)(F)F)cc2)c2cccc(C(F)(F)F)c2)cc1
Between I and II , whose measured IC50 reads higher? // respond with label for picked entry
II
(II: 112 µM, I: 13.6 µM)

Where these numbers come from: ChEMBL document CHEMBL3797166
